# test method notes: chemical genetic growth profiling, strain panel (AID 1159580);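 further: tested at 20 µM; growth read once vehicle control cultures reached saturation at 30 °C; lower values mean less growth of the strain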
# condition label: S. cerevisiae deletion strains, growth OD, locus YIL125W, strain kgd1
Among all 5,500 compounds or so, about 2,000 (36%) were called active. Another 18% or so got no clear call; they are omitted. No stated cut-off is given here; in the data, active means normalized growth mostly below about 0.91 (no sharp cut-off); inconclusive means no clear call, values can overlap the other calls; inactive means mostly above about 0.92. Some of the results follow.
Assign a class; possible classes are TRUE = active, FALSE = inactive

-- ask For CCCC(C)(COC(N)=O)COC(=O)NC(C)C (stereo unspecified) , what call appears in the results of this test?
-- reply FALSE

-- ask For COc1ccc2c(c1)CCC1C2CCC2(C)C1C[C@@H](O)C2O (stereo partly specified) , what call appears in the results of this test?
-- reply FALSE

-- ask For `NC(=O)CN1CCCC1=O` , what call appears in the results of this test?
-- reply FALSE

-- ask For COc1ccc2c(c1C(C)C)CCC1C(C)(C)C(=O)CCC21C (stereo unspecified) , what call appears in the results of this test?
-- reply FALSE

-- ask For O=C1C=C2C(=CCOC2O)O1 (stereo unspecified) , what call appears in the results of this test?
-- reply TRUE

-- ask For `Cc1cc(OC(=O)c2c(C)cc(OC(=O)c3c(C)cc(O)cc3O)cc2O)cc(O)c1C(=O)O` , what call appears in the results of this test?
-- reply FALSE

-- ask For C[C@]12CCC3c4ccc(OS(=O)(=O)O)cc4CCC3C1CC[C@H]2O (stereo partly specified) , what call appears in the results of this test?
-- reply FALSE

-- ask For COc1ccc2c(c1)CCC1C2CC[C@@]2(C)C1CC[C@@H]2O (stereo partly specified) , what call appears in the results of this test?
-- reply TRUE

-- ask For C[C@@H]1CC[C@@]2(OC1)OC1CC3C4CC=C5C[C@@H](O)CC[C@]5(C)C4CC[C@]3(C)C1[C@@H]2C (stereo partly specified) , what call appears in the results of this test?
-- reply FALSE

-- ask For `CCC(=O)c1c(O)cc(O)cc1O` , what call appears in the results of this test?
-- reply FALSE

-- ask For Cc1ccccc1OCC(O)CO (stereo unspecified) , what call appears in the results of this test?
-- reply FALSE

-- ask For `O=C(O)C1=C[C@@H](O)[C@@H](O)[C@H](O)C1` , what call appears in the results of this test?
-- reply FALSE

-- ask For NC(=O)NCC(N)C(=O)O (stereo unspecified) , what call appears in the results of this test?
-- reply FALSE

-- ask For C[C@@H]1CC[C@@]2(NC1)O[C@H]1C[C@H]3C4CC=C5C[C@@H](O)CC[C@]5(C)C4CC[C@]3(C)C1[C@@H]2C (stereo partly specified) , what call appears in the results of this test?
-- reply TRUE

-- ask For C[C@]12CCC3c4ccc(O)cc4CCC3C1C[C@@H](O)[C@@H]2O (stereo partly specified) , what call appears in the results of this test?
-- reply FALSE

-- ask For CC12CCC3c4ccc(OCc5ccccc5)cc4CCC3C1C[C@@H](O)[C@@H]2O (stereo partly specified) , what call appears in the results of this test?
-- reply TRUE

-- ask For CC1CC[C@@]2(OC1)O[C@H]1CC3C4CC[C@@H]5C[C@@H](O)CC[C@]5(C)C4CC[C@]3(C)[C@H]1[C@@H]2C (stereo partly specified) , what call appears in the results of this test?
-- reply FALSE

-- ask For CO[C@@]1(NC(=O)C(C(=O)O)c2ccc(O)cc2)C(=O)N2C(C(=O)O)=C(CSc3nnnn3C)CO[C@@H]21 (stereo partly specified) , what call appears in the results of this test?
-- reply FALSE

-- ask For CC1CC[C@]2(NC1)O[C@H]1CC3C4CC[C@H]5C[C@@H](O)CC[C@]5(C)C4CC[C@]3(C)[C@H]1[C@@H]2C (stereo partly specified) , what call appears in the results of this test?
-- reply TRUE

-- ask For CC1CCC2(OC1)OC1CC3C4CC[C@H]5C[C@@H](O)CC[C@]5(C)C4CC(=O)[C@]3(C)C1C2C (stereo partly specified) , what call appears in the results of this test?
-- reply FALSE

-- ask For `CCOC(=O)c1c(C)cc(OC)cc1O` , what call appears in the results of this test?
-- reply TRUE
